MEASURED_TARGET: PKC-theta (Homo sapiens)
Construct: His-tag; made in house; host or cells: baculovirus-infected Sf9 cells
Sequence (Q04759 whole entry): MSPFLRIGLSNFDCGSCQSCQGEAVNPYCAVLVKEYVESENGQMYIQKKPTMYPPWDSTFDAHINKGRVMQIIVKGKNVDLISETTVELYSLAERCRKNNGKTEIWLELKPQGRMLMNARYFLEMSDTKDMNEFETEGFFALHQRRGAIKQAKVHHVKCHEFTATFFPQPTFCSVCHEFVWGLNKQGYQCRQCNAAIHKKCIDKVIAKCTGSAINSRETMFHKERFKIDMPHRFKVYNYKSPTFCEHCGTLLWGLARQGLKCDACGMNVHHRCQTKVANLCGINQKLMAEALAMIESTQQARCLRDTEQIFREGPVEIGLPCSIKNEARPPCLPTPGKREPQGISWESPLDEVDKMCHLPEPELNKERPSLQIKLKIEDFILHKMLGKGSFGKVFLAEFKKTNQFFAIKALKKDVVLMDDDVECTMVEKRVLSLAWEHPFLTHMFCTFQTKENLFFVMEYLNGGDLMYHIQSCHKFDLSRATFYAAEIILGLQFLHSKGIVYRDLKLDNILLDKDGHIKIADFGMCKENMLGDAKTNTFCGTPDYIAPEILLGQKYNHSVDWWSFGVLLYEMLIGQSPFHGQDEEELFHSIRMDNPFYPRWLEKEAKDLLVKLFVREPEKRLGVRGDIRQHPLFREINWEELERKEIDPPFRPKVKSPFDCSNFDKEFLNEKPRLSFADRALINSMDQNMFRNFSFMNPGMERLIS
ASSAY_PROTOCOL: In vitro kinase assay: peptide phosphorylation by PKC-theta
Format: biochemical
CONDITION_SET: peptide concentration 1 uM

{"SUBSTANCE": "157 (PSPSNETPKKKKKRFSFKKS) [compound 157]", "phosphorylation by PKC theta": 20}
{"SUBSTANCE": "126 (KAIKAIEGGQKFARKSTRRS) [compound 126]", "phosphorylation by PKC theta": 46}
{"SUBSTANCE": "129 (VQRHRSMRKTFARYLSFRRD) [compound 129]", "phosphorylation by PKC theta": 48}
{"SUBSTANCE": "131 (WKGKRRSKARKKRK) [compound 131]", "phosphorylation by PKC theta": 53}
{"SUBSTANCE": "160 (PFEVVWYKDKRQLRSSKKYK) [compound 160]", "phosphorylation by PKC theta": 19}
{"SUBSTANCE": "115 (NRKKKRTSFKRKA) [compound 115]", "phosphorylation by PKC theta": 89}

* * *

MEASURED_TARGET: PKC-alpha (Homo sapiens)
Construct: purchased Calbiochem
ASSAY_PROTOCOL: In vitro kinase assay: peptide phosphorylation by PKC-alpha
Format: biochemical
CONDITION_SET: peptide concentration 1 uM

{"SUBSTANCE": "124 (PRLIRRGSKKRPAR) [compound 124]", "phosphorylation by PKC alpha": 48}
{"SUBSTANCE": "159 (LYARLARAYRRSQRASFKRA) [compound 159]", "phosphorylation by PKC alpha": 21}
{"SUBSTANCE": "116 (EEGTFRSSIRRLSTRRR) [compound 116]", "phosphorylation by PKC alpha": 70}
{"SUBSTANCE": "140 (TELEGGFSRQRKRKLSFRRR) [compound 140]", "phosphorylation by PKC alpha": 12}
{"SUBSTANCE": "162 (KKKFSFKKPFKLSGLSFKRN) [compound 162]", "phosphorylation by PKC alpha": 17}
{"SUBSTANCE": "143 (VRYTPYTISPYNRKGSFRKQ) [compound 143]", "phosphorylation by PKC alpha": 38}
{"SUBSTANCE": "135 (KKKFRTPSFLKKSKK) [compound 135]", "phosphorylation by PKC alpha": 56}

* * *

MEASURED_TARGET: PKC-zeta (Homo sapiens)
Construct: purchased Calbiochem
Sequence (Q05513 1-592): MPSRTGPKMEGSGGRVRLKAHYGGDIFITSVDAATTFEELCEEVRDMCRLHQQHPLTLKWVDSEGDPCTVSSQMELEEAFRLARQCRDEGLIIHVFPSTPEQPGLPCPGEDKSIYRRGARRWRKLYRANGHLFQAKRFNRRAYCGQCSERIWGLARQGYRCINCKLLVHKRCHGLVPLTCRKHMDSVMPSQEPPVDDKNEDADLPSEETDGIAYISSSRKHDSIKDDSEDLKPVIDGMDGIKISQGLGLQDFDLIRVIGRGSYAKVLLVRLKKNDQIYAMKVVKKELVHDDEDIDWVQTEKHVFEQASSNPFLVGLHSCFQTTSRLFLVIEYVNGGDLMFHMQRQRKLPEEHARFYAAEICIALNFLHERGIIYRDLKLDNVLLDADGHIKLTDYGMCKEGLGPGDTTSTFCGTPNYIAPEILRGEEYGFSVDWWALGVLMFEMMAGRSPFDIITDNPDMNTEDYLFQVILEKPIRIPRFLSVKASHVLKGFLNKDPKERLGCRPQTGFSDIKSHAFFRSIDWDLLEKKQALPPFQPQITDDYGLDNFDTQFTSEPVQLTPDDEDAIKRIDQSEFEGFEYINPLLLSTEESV
ASSAY_PROTOCOL: In vitro kinase assay: peptide phosphorylation by PKC-zeta
Format: biochemical
CONDITION_SET: normalized to best substrate
VALUE_TYPE: PKC-zeta phosphorylation (%)

{"SUBSTANCE": "96 (RGFLRSASLGRRASFHLE) [compound 96]", "VALUE_TYPE": "PKC-zeta phosphorylation", "QUANTITATIVE_RESULT": 22}
{"SUBSTANCE": "101 (GAPPRRSSIRNAH) [compound 101]", "VALUE_TYPE": "PKC-zeta phosphorylation", "QUANTITATIVE_RESULT": 3}
{"SUBSTANCE": "99 (AGWRKKTSFRKPKED) [compound 99]", "VALUE_TYPE": "PKC-zeta phosphorylation", "QUANTITATIVE_RESULT": 10}
{"SUBSTANCE": "110 (EGGDRRASGRRK) [compound 110]", "VALUE_TYPE": "PKC-zeta phosphorylation", "QUANTITATIVE_RESULT": 3}
{"SUBSTANCE": "97 (KKRSSKKEASMKKVVRP) [compound 97]", "VALUE_TYPE": "PKC-zeta phosphorylation", "QUANTITATIVE_RESULT": 1}
{"SUBSTANCE": "84 (QKKSRLRRRASQLKI) [compound 84]", "VALUE_TYPE": "PKC-zeta phosphorylation", "QUANTITATIVE_RESULT": 19}
{"SUBSTANCE": "98 (AGPLRKSSLKKGGRL) [compound 98]", "VALUE_TYPE": "PKC-zeta phosphorylation", "QUANTITATIVE_RESULT": 4}
